Literature-derived IC50 for UniProt:P05186 follows.
experimental.endpoint: IC50 (µM)

Previously resolved entries follow.
> print(dat)
                                compound  experimental.endpoint  result.value
1         Cc1cn(CC(=O)c2ccc(O)c(O)c2)cn1                   IC50          41.1
2     Cc1nc2ccccc2n1CC(=O)c1ccc(O)c(O)c1                   IC50          26.3
3  O=C(CNc1nc2ccccc2[nH]1)c1ccc(O)c(O)c1                   IC50          93.8

[P] COc1ccc2c(c1OC)C(=O)OC2CC(=O)c1ccc(O)c(O)c1 (centres undefined)
[Q] O=C1/C(=C/c2c(F)cccc2F)NS(=O)(=O)c2ccccc21
Q: Between P and Q , which one has the lower reported IC50 value? To answer, give the label that identifies your chosen option.
Result: Q
(Q: 1.53 µM, P: 29.2 µM)

[A] O=C1/C(=C/c2cccc(O)c2)NS(=O)(=O)c2ccccc21
[B] O=C(c1cc(-c2ccc(Cl)cc2Cl)n[nH]1)N1CCCCCC1
Q: Short answer wanted: higher IC50, A or B ? To answer, give the label that identifies your chosen option.
Result: A
(A: 3.57 µM, B: 1.45 µM)

[P] O=C(NCCCO)c1cc(-c2cc(F)c(Cl)cc2Cl)n[nH]1
[Q] O=C(c1cc(-c2ccc(Cl)cc2Cl)n[nH]1)N1CCN(CCO)CC1
Q: Between P and Q , which one has the lower reported IC50 value? To answer, give the label that identifies your chosen option.
Result: P
(P: 0.056 µM, Q: 0.375 µM)

[1] COc1ccccc1/C=C1\NS(=O)(=O)c2ccccc2C1=O
[2] O=C(NCCCCO)c1cc(-c2ccc(Cl)cc2Cl)n[nH]1
[3] O=C(Cn1cnc(Br)c1)c1ccc(O)c(O)c1
[4] O=C1/C(=C/c2ccccc2)NS(=O)(=O)c2ccccc21
Q: hey, can you rank those compounds up there by IC50? biggest number first please State the ranking by listing the labels in the requested order.
Result: 3, 1, 4, 2
